Origin of values: patent US6391917B1

biological target: Human calcitonin receptor (Homo sapiens); construct: expressed in transfected cells; host or cells: BHK-570 (Hollex-1); assay: CRE-luciferase assay for calcitonin mimetics (Hollex-1); assay type: cell-based; conditions: crude compound 6.25 μg/ml
Sequence (P30988 25-474): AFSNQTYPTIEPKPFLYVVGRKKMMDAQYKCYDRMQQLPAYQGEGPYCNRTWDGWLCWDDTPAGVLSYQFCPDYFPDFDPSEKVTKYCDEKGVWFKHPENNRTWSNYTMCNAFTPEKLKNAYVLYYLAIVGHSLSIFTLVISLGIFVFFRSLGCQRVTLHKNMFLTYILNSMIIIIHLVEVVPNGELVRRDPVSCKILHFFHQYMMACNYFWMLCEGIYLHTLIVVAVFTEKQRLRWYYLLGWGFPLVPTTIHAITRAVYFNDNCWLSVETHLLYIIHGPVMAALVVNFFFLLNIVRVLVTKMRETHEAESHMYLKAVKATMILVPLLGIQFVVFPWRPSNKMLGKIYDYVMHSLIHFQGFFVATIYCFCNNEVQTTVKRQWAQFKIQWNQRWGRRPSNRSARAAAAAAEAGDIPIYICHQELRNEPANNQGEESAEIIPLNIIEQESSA
The threshold is inclusive: Luciferase induction (% of maximum luciferase induction produced by CT, 100 nM) of exactly 20% counts as condition met; values below receive condition not met.

Example entries begin here.
COMPOUND	DISCRETE_LABEL
CC(C)(C)c1ccc(C(C)(C)C)c(NC(=O)N[C@H](Cc2ccc(I)cc2)C(=O)NCc2ccccc2)c1 [628-044]	condition met
C=CCNC(=O)[C@H](NC(=O)Nc1cc(C(C)(C)C)ccc1C(C)(C)C)c1ccccc1 [628-036]	condition not met
CC(C)(C)c1ccc(C(C)(C)C)c(NC(=O)N[C@@H](C(=O)NCc2ccc3ccccc3c2)c2ccccc2)c1 [628-056]	condition not met
CCNC(=O)C(Cc1cn(CC)c2ccccc12)NC(=O)Nc1cc(C(C)(C)C)ccc1C(C)(C)C (centres unmarked) [628-008]	condition not met
CC(C)(C)c1ccc(C(C)(C)C)c(NC(=O)N[C@H](Cc2ccc(Cl)cc2)C(=O)NCc2ccccc2)c1 [628-042]	condition met

Task item: Given C=CCNC(=O)C(Cc1cn(CC=C)c2ccccc12)NC(=O)Nc1cc(C(C)(C)C)ccc1C(C)(C)C (centres unmarked) [628-016] , state whether its Luciferase induction (% of maximum luciferase induction produced by CT, 100 nM) is at least 20%.
Reply: condition met

Task item: Decide: Luciferase induction (% of maximum luciferase induction produced by CT, 100 nM) of C=CCNC(=O)[C@@H](Cc1ccc(Cl)cc1)NC(=O)Nc1cc(C(C)(C)C)ccc1C(C)(C)C [628-032] >= 20%?
Reply: condition met

Task item: Is the recorded value of Luciferase induction (% of maximum luciferase induction produced by CT, 100 nM) equal to or greater than 20% for this compound? CCNC(=O)[C@@H](Cc1ccc2ccccc2c1)NC(=O)Nc1cc(C(C)(C)C)ccc1C(C)(C)C [628-025]
Reply: condition not met

Task item: I'd appreciate it if you could say whether CC(C)(C)c1ccc(C(C)(C)C)c(NC(=O)N[C@H](Cc2ccc(F)cc2)C(=O)NCc2ccccc2)c1 [628-043] has Luciferase induction (% of maximum luciferase induction produced by CT, 100 nM) at least equal to 20%.
Reply: condition met

Task item: Entry C=CCNC(=O)[C@@H](Cc1ccccc1)NC(=O)Nc1cc(C(C)(C)C)ccc1C(C)(C)C [628-013] : is its Luciferase induction (% of maximum luciferase induction produced by CT, 100 nM) no less than 20%?
Reply: condition not met

Task item: Item C=CCNC(=O)[C@@H](Cc1ccc(I)cc1)NC(=O)Nc1cc(C(C)(C)C)ccc1C(C)(C)C [628-034] with Luciferase induction (% of maximum luciferase induction produced by CT, 100 nM) of 20% or above?
Reply: condition not met

Task item: Does CCNC(=O)[C@@H](Cc1ccc(Cl)cc1)NC(=O)Nc1cc(C(C)(C)C)ccc1C(C)(C)C [628-022] have a reported Luciferase induction (% of maximum luciferase induction produced by CT, 100 nM) of at least 20%?
Reply: condition not met

Task item: Identify whether the reported Luciferase induction (% of maximum luciferase induction produced by CT, 100 nM) of the following compound is 20% or greater: CC(C)(C)c1ccc(C(C)(C)C)c(NC(=O)N[C@H](Cc2ccc3ccccc3c2)C(=O)NCc2ccccc2)c1 [628-045]
Reply: condition met

Task item: Is it the case that CC(C)(C)c1ccc(C(C)(C)C)c(NC(=O)N[C@H](Cc2ccc(Cl)cc2)C(=O)NCc2ccc3ccccc3c2)c1 [628-052] has Luciferase induction (% of maximum luciferase induction produced by CT, 100 nM) reaching or exceeding 20%?
Reply: condition met

Task item: Check this compound for Luciferase induction (% of maximum luciferase induction produced by CT, 100 nM) at or above 20%: CCNC(=O)C(Cc1ccc(OCC)cc1)NC(=O)Nc1cc(C(C)(C)C)ccc1C(C)(C)C (centres unmarked) [628-007]
Reply: condition not met

Task item: Has CC(C)(C)c1ccc(C(C)(C)C)c(NC(=O)N[C@H](Cc2ccc3ccccc3c2)C(=O)NCc2ccc3ccccc3c2)c1 [628-055] a recorded Luciferase induction (% of maximum luciferase induction produced by CT, 100 nM) greater than or equal to 20%?
Reply: condition met

Task item: Could you tell me if the measured Luciferase induction (% of maximum luciferase induction produced by CT, 100 nM) of CCNC(=O)[C@@H](Cc1ccc(F)cc1)NC(=O)Nc1cc(C(C)(C)C)ccc1C(C)(C)C [628-023] reaches 20% or more?
Reply: condition not met

Task item: Does Luciferase induction (% of maximum luciferase induction produced by CT, 100 nM) meet or surpass 20% for C=CCNC(=O)[C@@H](Cc1ccc2ccccc2c1)NC(=O)Nc1cc(C(C)(C)C)ccc1C(C)(C)C [628-035] ?
Reply: condition met

Task item: Luciferase induction (% of maximum luciferase induction produced by CT, 100 nM) >= 20% for C=CCNC(=O)C(Cc1ccc(OCC=C)cc1)NC(=O)Nc1cc(C(C)(C)C)ccc1C(C)(C)C (centres unmarked) [628-015] ?
Reply: condition not met

Task item: Check this compound for Luciferase induction (% of maximum luciferase induction produced by CT, 100 nM) at or above 20%: CC(C)(C)c1ccc(C(C)(C)C)c(NC(=O)N[C@H](Cc2ccc(I)cc2)C(=O)NCc2ccc3ccccc3c2)c1 [628-054]
Reply: condition met

Task item: Can CC(C)(C)c1ccc(C(C)(C)C)c(NC(=O)N[C@H](Cc2ccc(F)cc2)C(=O)NCc2ccc3ccccc3c2)c1 [628-053] be said to have Luciferase induction (% of maximum luciferase induction produced by CT, 100 nM) at or above 20%?
Reply: condition not met

Task item: Check the entry C=CCNC(=O)[C@@H](Cc1ccc(F)cc1)NC(=O)Nc1cc(C(C)(C)C)ccc1C(C)(C)C [628-033] : does Luciferase induction (% of maximum luciferase induction produced by CT, 100 nM) equal or exceed 20%?
Reply: condition not met

Task item: Could you please find out whether CCNC(=O)[C@@H](Cc1ccc(I)cc1)NC(=O)Nc1cc(C(C)(C)C)ccc1C(C)(C)C [628-024] has Luciferase induction (% of maximum luciferase induction produced by CT, 100 nM) that meets 20% or exceeds it?
Reply: condition not met
